System: Staphylococcus aureus
Assay: Antibacterial activity against Staphylococcus aureus Smith after 18 hrs by serial agar dilution method
Format: functional
# key: entry, value: MIC
Quick note: give the figure in µg/mL, leave out the unit.

CCCCCCCCCCCCCCCC(=O)OC[C@@H]1NC(=O)[C@H]([C@H](O[C@@H]2O[C@H](CN)[C@@H](O)[C@H]2O)[C@H]2O[C@@H](n3ccc(=O)[nH]c3=O)[C@H](O)[C@@H]2O)NC1=O :: 25

Ask | Look at this molecule and give its reported MIC. CCCCCCCCCCCCCCCC(=O)OC[C@@H](NC(=O)[C@@H](N)[C@H](O[C@@H]1O[C@H](CN)[C@@H](O)[C@H]1O)[C@H]1O[C@@H](n2ccc(=O)[nH]c2=O)[C@H](O)[C@@H]1O)C(=O)O
Reply | 25

###

System: Corynebacterium bovis
Assay: Antibacterial activity against Corynebacterium bovis 1810 after 18 hrs by serial agar dilution method
Assay type: functional
Known MIC of a selection of compounds
Report the figure in µg/mL without appending any unit label.

Answered examples (3):
CCCCCCCCCCCCCCCC(=O)OC[C@@H](NC(=O)[C@@H](N)[C@H](O[C@@H]1O[C@H](CN)[C@@H](O)[C@H]1O)[C@H]1O[C@@H](n2ccc(=O)[nH]c2=O)[C@H](O)[C@@H]1O)C(=O)O :: 12.5
CCCCCCCCCCCCCCCC(=O)OC[C@H](NC(=O)[C@@H](N)[C@H](O[C@@H]1O[C@H](CN)[C@@H](O)[C@H]1O)[C@H]1O[C@@H](n2ccc(=O)[nH]c2=O)[C@H](O)[C@@H]1O)C(=O)O :: 12.5
NC[C@H]1O[C@@H](O[C@H]([C@H]2O[C@@H](n3ccc(=O)[nH]c3=O)[C@H](O)[C@@H]2O)[C@H](N)C(=O)N[C@@H](COC(=O)c2ccc(-c3ccccc3)cc2)C(=O)O)[C@H](O)[C@@H]1O :: 100

Turning to the following compound.
Ask | Give recorded MIC with Corynebacterium bovis for the following compound: CCCCCCCCCCCCCCCC(=O)OC[C@@H]1NC(=O)[C@H]([C@H](O[C@@H]2O[C@H](CN)[C@@H](O)[C@H]2O)[C@H]2O[C@@H](n3ccc(=O)[nH]c3=O)[C@H](O)[C@@H]2O)NC1=O
Reply | 50

###

Each entry below carries its recorded MIC.
Test system: Micrococcus luteus
Assay: Antibacterial activity against Micrococcus luteus PCI1001 after 18 hrs by serial agar dilution method
Type: functional
Details: PCI1001, 18 h
Express it in µg/mL; write the number only.

Examples from the recorded data:
CCCCCCCCCCCCCCCC(=O)OC[C@@H](NC(=O)[C@@H](N)[C@H](O[C@@H]1O[C@H](CN)[C@@H](O)[C@H]1O)[C@H]1O[C@@H](n2ccc(=O)[nH]c2=O)[C@H](O)[C@@H]1O)C(=O)O :: 12.5
CCCCCCCCCCCCCCCC(=O)OC[C@H](NC(=O)[C@@H](N)[C@H](O[C@@H]1O[C@H](CN)[C@@H](O)[C@H]1O)[C@H]1O[C@@H](n2ccc(=O)[nH]c2=O)[C@H](O)[C@@H]1O)C(=O)O :: 25
NC[C@H]1O[C@@H](O[C@H]([C@H]2O[C@@H](n3ccc(=O)[nH]c3=O)[C@H](O)[C@@H]2O)[C@@H]2NC(=O)[C@H](COC(=O)c3ccc(-c4ccccc4)cc3)NC2=O)[C@H](O)[C@@H]1O :: 100
NC[C@H]1O[C@@H](O[C@H]([C@H]2O[C@@H](n3ccc(=O)[nH]c3=O)[C@H](O)[C@@H]2O)[C@H](N)C(=O)N[C@@H](COC(=O)c2ccc(-c3ccccc3)cc2)C(=O)O)[C@H](O)[C@@H]1O :: 50

Ask | Could you tell me which MIC is on file for CCCCCCCCCCCCCCCC(=O)OC[C@@H]1NC(=O)[C@H]([C@H](O[C@@H]2O[C@H](CN)[C@@H](O)[C@H]2O)[C@H]2O[C@@H](n3ccc(=O)[nH]c3=O)[C@H](O)[C@@H]2O)NC1=O ?
Reply | 50
